B1: HDV Ribozyme (parent)
chain: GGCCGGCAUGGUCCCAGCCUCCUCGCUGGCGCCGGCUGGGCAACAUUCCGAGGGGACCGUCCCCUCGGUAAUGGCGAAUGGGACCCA

- Variants of: B1
- protocol: self-cleavage, relative activity (ratio to wild type); higher = more cleavage; co-transcriptional
readout_type: self-cleavage
Write the number on its own, no unit after it.

| ordered_residues | self-cleavage |
| --- | --- |
| GGCCGGCAUGGUCCCAGCCUCCUCGCUGGCGCCGGCUGGGCAAUAUUCCGAGGGGACCGUCCCCUCGGUAAUGGCGAAUGCGACCCA | 0.0923 |
| GGCCGGCAUGGUCCCAGCCUCCUCGCUGGCGCCGGCUGGGCAACAUUCCGAGGGGACCGUCCCAUCGGUAAUGGCGAAUGGGACCCC | 0.779 |

Asked: Tell me measured self-cleavage for `GGCCGGCAUGGUCCCAGCCUCCUCGCUGGCGCCGGCCGGGCAACAUUCCGAGGGGACCGUCCCCCCGGUAAUGGCGAAUGGGACCCA` please.
Given back: 1.05

Asked: Given the variant `GGCCGGCAUGGUCCCAGCUUCCUCGCUGGCGCCGGGUGGGCAACAUUCCGAGGGGACCGUCCCCUCGGUAAUGGCGAAUGGGACCCA` , write its reported self-cleavage.
Given back: 0.0723

Asked: Please report self-cleavage for the following variant: `GGCCGGCAUGGUCCCAGCCUCCUCGCUGGCGCCGGCUGGGCAACAUUACGAGGGGACCGUCCCCUCGGUAAUGACGAAUGGGACCCA`
Given back: 0.7

Asked: Answer with the recorded self-cleavage for the variant listed here: `GGCCGGCAUGGUCCAAGCCUCCUCGCUGGCGCCGGCUGGGCAACAAUCCGAGGGGACCGUCCCCUCGGUAAUGGCGAAUGGGACCCA`
Given back: 0.361

Asked: Fill in self-cleavage for record `GGCCGGCAUGGUUCCAGCCUCCUCGCUGGCACCGGCUGGGCAACAUUCCGAGGGGACCGUCCCCUCGGUAAUGGCGAAUGGGACCCA`
Given back: 0.131
